- SUBJECT_OF_TEST: human IDO1 (Homo sapiens)
- Sequence (P14902 whole entry): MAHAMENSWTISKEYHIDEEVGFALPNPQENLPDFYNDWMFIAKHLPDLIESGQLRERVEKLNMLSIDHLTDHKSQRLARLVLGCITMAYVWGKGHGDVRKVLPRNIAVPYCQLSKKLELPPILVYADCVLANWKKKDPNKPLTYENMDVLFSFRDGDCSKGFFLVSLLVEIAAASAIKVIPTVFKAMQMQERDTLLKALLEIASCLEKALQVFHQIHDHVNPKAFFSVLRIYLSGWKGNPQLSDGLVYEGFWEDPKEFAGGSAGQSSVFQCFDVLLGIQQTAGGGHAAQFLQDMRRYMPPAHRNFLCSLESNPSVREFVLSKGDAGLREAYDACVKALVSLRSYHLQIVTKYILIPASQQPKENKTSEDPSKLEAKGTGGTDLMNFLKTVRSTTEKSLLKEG
- ASSAY_TEXT: Assessment of human IDO-1 inhibitory activity in Hela cells (Interferon-gamma stimulated HeLa cells, Ehrlich reagent, absorbance 490 nm)
- Assay type: cell-based
- Design: endogenous in cells; host or cells: HeLa cells stimulated with interferon-gamma
- ASSAY_SETUP: Hela Human IDO-1 cellular assay
pIC50: −log10 of the molar value.
Reported pIC50 values follow for various molecules
QUANTITY_KIND: pIC50

1. CCN(c1ccc([C@H](COC)CC(=O)O)cc1Nc1ccc(C(F)(F)F)cc1)C1CCOCC1 [Example 401] :: > 8.30
2. CCCN(c1ccc([C@H](CC)CC(=O)O)cc1Nc1ccc(Cl)cc1)C1CCOCC1 (single isomer, unassigned) [Example 552] :: > 8.30
3. CCC1COCCN1c1ccc([C@H](COC)CC(=O)O)cc1Nc1ccc(F)cn1 (single isomer, unassigned) [Example 1294] :: < 7.30
4. CCOc1ncc(Nc2cc(C(COC)CC(=O)O)ccc2N(CC)C2CCS(=O)(=O)CC2)cn1 (single isomer, unassigned) [Example 171] :: < 7.30
5. CC[C@H](CC(=O)O)c1ccc(N(CC)C2CCOCC2)c(Nc2cnc(C)nc2)c1 (single isomer, unassigned) [Example 1363] :: > 8.30
6. CCOc1ccc(Nc2cc([C@H](CC)CC(=O)O)ccc2N(CC)C2CCOCC2)cn1 (single isomer, unassigned) [Example 509] :: > 8.30
